The reported measurements were obtained from PubChem BioAssay (Tox21).

Molecular target: Cytochrome P450 2C19 (Homo sapiens) (UniProt P33261)
Sequence (P33261 whole entry, looked up): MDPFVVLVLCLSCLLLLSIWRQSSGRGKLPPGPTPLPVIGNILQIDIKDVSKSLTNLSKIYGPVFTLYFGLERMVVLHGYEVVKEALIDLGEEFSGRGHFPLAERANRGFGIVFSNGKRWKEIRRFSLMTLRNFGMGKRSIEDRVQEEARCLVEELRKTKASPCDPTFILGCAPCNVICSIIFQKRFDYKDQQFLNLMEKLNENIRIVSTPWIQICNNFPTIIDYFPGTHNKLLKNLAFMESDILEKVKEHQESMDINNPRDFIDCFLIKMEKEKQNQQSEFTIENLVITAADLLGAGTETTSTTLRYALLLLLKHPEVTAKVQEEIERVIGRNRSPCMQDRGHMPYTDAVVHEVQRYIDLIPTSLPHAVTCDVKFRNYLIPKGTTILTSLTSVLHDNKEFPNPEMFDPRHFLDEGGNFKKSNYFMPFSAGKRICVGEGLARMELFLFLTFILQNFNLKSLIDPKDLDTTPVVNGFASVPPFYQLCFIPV
Assay: Cytochrome P450 Family 2 Subfamily C Member 19 (CYP2C19) small molecule antagonists: luciferase reporter qHTS assay (AID 1671197); further: nearly all actives have a fitted effect of over 65% in size
Details: P450-Glo CYP2C19 enzyme, luciferin luminescence, 1 h; series mostly up to 115 µM
Source text: National Center for Advancing Translational Sciences [NCATS] U.S. Environmental Protection Agency [EPA] National Institutes of Environmental Health Sciences [NIEHS] National Toxicology Program [NTP] U.S. Food and Drug Administration [FDA] Cytochrome P450 (CYP) enzymes are membrane-bound hemeproteins that play a key role in metabolism of drugs and xenobiotics. […] The luciferin products formed are detected with a luciferin detection reagent, and the amount of light produced is proportional to CYP activity. […]
Inconclusive results are not listed. Activity calls are given as the source filed them. The call rests on the fitted dose curve; in most records, active means well fitted inhibition curve with a large enough effect in the repeat runs; inconclusive means weak or mixed curves; inactive means no such curve, though single readings can be large or run the other way.
Labels: Yes = active, No = inactive

Compound: C=CC(=O)OCC
Qualitative label: No
--
Compound: CC1(C)CC(=O)CC(C)(C)N1[O]
Qualitative label: No
--
Compound: CN(C1CCCCC1)C1CCCCC1
Qualitative label: No
--
Compound: CC(C)(C)NCC(O)c1ccccc1Cl (stereo not drawn)
Qualitative label: No
--
Compound: C[C@]12CC[C@H]3[C@@H](CCC4=CC(=O)CC[C@@H]43)[C@@H]1CC[C@@H]2OC(=O)CCc1ccccc1
Qualitative label: No
--
Compound: O=C1CC[C@@]2(O)[C@H]3Cc4ccc(O)c5c4[C@@]2(CCN3CC2CC2)[C@H]1O5
Qualitative label: No
--
Compound: OC[P+](CO)(CO)CO
Qualitative label: No
--
Compound: CCCCC1C(=O)NC(=O)N(C2CCCCC2)C1=O (stereo not drawn)
Qualitative label: Yes
--
Compound: C[N+]1(CCC(C(N)=O)(c2ccccc2)c2ccccc2)CCCCC1
Qualitative label: No
--
Compound: O=C(O)c1ccc(=O)[nH]c1
Qualitative label: No
--
Compound: O=C(O)c1cc(Cl)ccc1Cl
Qualitative label: Yes
--
Compound: COc1cc(CC#N)cc(OC)c1OC
Qualitative label: No
--
Compound: CCC(C)Cl (stereo not drawn)
Qualitative label: No
